MIC values for the compounds below.
System: Staphylococcus aureus
ASSAY DETAILS: microbe, parasite or virus in culture
Format: functional
COND: M147-2, time 20 hrs
Description: Antimicrobial activity against Staphylococcus aureus M147-2 harboring erythromycin resistance rRNA methylase B, tetracycline efflux protein L and chloramphenicol-florfenicol resistance methylase assessed as inhibition of visible growth of bacteria incubated for 20 hrs by broth microdilution method
Give the quantity in µg/mL, number only.

COc1ccc2nc3c(c(C(=O)O)c2c1)CC(C)C/C3=C\c1cccc(-c2ccc(Cl)c(C(F)(F)F)c2)c1 (racemic)    2
CO[C@@]1(NC(=O)Cc2cccs2)C(=O)N2C(C(=O)O)=C(COC(N)=O)CS[C@@H]21    4
CNC(C)[C@@H]1CC[C@@H](N)[C@@H](O[C@H]2[C@H](O)[C@@H](O[C@H]3OC[C@](C)(O)[C@H](NC)[C@H]3O)[C@H](N)C[C@@H]2N)O1.CN[C@@H]1[C@@H](O)[C@@H](O[C@@H]2[C@@H](O)[C@H](O[C@H]3O[C@H](C(C)N)CC[C@H]3N)[C@@H](N)C[C@H]2N)OC[C@]1(C)O.CN[C@@H]1[C@@H](O)[C@@H](O[C@@H]2[C@@H](O)[C@H](O[C@H]3O[C@H](CN)CC[C@H]3N)[C@@H](N)C[C@H]2N)OC[C@]1(C)O (some centres undefined)    0.5
CC1C/C(=C\c2ccc(-c3ccc(Cl)c(C(F)(F)F)c3)s2)c2nc3ccccc3c(C(=O)O)c2C1 (racemic)    1
CC(=O)NC[C@H]1CN(c2ccc(N3CCOCC3)c(F)c2)C(=O)O1    8

Shifting focus to the compound that follows.
Answer with the recorded MIC of CCCCCCc1ccc(-c2ccc(/C=C3\CC(C)Cc4c3nc3ccc(OC)cc3c4C(=O)O)cn2)cc1 (racemic) only.
4

----------
ASSAY DETAILS: Metabolic stability in mouse liver microsomes assessed as intrinsic clearance at 100 uM preincubated for 5 mins followed by NADPH addition and measured upto 60 mins by LC-MS/MS analysis
Assay type: ADME, Microsome
COND: time < 65 min, read-out: CLH
PARAMETER MEASURED: microsomal CLint at 100 µM

Answer with the recorded microsomal CLint at 100 µM of CC1C/C(=C\c2ccc(-c3ccc(Cl)c(C(F)(F)F)c3)s2)c2nc3ccccc3c(C(=O)O)c2C1 (racemic) only.
< 7.5 µL/min/mg

----------
Test system: Enterococcus faecalis
ASSAY DETAILS: Antimicrobial activity against Enterococcus faecalis JH2-2 assessed as inhibition of visible growth of bacteria incubated for 20 hrs by broth microdilution method
Type: functional
PARAMETER MEASURED: MIC (µg/mL)
Give the quantity in µg/mL, number only.

C[C@H]1c2cccc(O)c2C(=O)C2=C(O)[C@]3(O)C(=O)C(C(N)=O)=C(O)[C@@H](N(C)C)[C@@H]3[C@@H](O)[C@@H]21 [DOXYCYCLINE ANHYDROUS]    4
CCCCCCc1ccc(-c2ccc(/C=C3\CC(C)Cc4c3nc3ccc(OC)cc3c4C(=O)O)cn2)cc1 (racemic)    8
CCC[C@@H]1C[C@@H](C(=O)N[C@@H]([C@H]2O[C@H](SC)[C@H](O)[C@@H](O)[C@H]2O)[C@H](C)Cl)N(C)C1 [CLINDAMYCIN]    0.5

Answer with the recorded MIC of CNC(C)[C@@H]1CC[C@@H](N)[C@@H](O[C@H]2[C@H](O)[C@@H](O[C@H]3OC[C@](C)(O)[C@H](NC)[C@H]3O)[C@H](N)C[C@@H]2N)O1.CN[C@@H]1[C@@H](O)[C@@H](O[C@@H]2[C@@H](O)[C@H](O[C@H]3O[C@H](C(C)N)CC[C@H]3N)[C@@H](N)C[C@H]2N)OC[C@]1(C)O.CN[C@@H]1[C@@H](O)[C@@H](O[C@@H]2[C@@H](O)[C@H](O[C@H]3O[C@H](CN)CC[C@H]3N)[C@@H](N)C[C@H]2N)OC[C@]1(C)O (some centres not stated) only.
4

Answer with the recorded MIC of COc1ccc2nc3c(c(C(=O)O)c2c1)CC(C)C/C3=C\c1cccc(-c2ccc(Cl)c(C(F)(F)F)c2)c1 (racemic) only.
4

Answer with the recorded MIC of O=C(O)c1cn(C2CC2)c2cc(N3CCNCC3)c(F)cc2c1=O [CIPROFLOXACIN] only.
0.5

Answer with the recorded MIC of CC[C@H]1OC(=O)[C@H](C)[C@@H](O[C@H]2C[C@@](C)(OC)[C@@H](O)[C@H](C)O2)[C@H](C)[C@@H](O[C@@H]2O[C@H](C)C[C@H](N(C)C)[C@H]2O)[C@](C)(O)C[C@@H](C)C(=O)[C@H](C)[C@@H](O)[C@]1(C)O [ERYTHROMYCIN] only.
0.25

These data points were gathered from ChEMBL document CHEMBL6078677.
